target: Apo-transferrin (apo-Tf) (Homo sapiens, UniProt P02787); construct: purchased Sigma Aldrich Chemical Co. (Schnelldorf, Germany); test: Fluorescence quenching of apo-transferrin; type: binding; settings: 298 K, 1 µM apo-Tf, 0–8 µM compound, pH 7.4
Sequence (P02787 20-698): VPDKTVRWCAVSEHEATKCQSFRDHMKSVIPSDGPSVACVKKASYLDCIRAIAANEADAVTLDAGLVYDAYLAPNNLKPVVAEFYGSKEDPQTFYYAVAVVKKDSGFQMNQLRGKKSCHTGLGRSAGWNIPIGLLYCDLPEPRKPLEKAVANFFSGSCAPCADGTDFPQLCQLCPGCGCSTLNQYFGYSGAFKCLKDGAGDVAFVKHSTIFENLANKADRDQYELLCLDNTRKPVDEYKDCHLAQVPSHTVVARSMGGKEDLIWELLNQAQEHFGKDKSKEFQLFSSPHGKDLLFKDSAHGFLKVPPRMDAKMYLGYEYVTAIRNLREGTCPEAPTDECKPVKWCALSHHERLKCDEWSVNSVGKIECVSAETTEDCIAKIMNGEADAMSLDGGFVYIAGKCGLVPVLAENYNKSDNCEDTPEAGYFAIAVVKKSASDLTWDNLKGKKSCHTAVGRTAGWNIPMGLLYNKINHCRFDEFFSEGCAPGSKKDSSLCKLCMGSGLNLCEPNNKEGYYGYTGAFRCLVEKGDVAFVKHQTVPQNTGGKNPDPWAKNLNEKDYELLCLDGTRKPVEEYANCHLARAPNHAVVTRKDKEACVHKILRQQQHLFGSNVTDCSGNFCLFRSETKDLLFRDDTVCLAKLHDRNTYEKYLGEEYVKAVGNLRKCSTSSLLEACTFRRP
parameter measured: Ksv (Stern-Volmer constant), apo-Tf

query: Name the recorded Ksv (Stern-Volmer constant), apo-Tf of the item CCn1cc(C(=O)[O][Y]([OH])[O]C(=O)c2cn(CC)c3cc4c(cc3c2=O)OCO4)c(=O)c2cc3c(cc21)OCO3.O [Y oxo, [Y(oxo)(OH)(H2O)]] in your answer.
result: 6.52 (± 0.56) × 10^4 M^−1
